Target: human CB2 (hCB2) cannabinoid receptor (Homo sapiens, UniProt P34972)
Sequence (P34972 whole entry): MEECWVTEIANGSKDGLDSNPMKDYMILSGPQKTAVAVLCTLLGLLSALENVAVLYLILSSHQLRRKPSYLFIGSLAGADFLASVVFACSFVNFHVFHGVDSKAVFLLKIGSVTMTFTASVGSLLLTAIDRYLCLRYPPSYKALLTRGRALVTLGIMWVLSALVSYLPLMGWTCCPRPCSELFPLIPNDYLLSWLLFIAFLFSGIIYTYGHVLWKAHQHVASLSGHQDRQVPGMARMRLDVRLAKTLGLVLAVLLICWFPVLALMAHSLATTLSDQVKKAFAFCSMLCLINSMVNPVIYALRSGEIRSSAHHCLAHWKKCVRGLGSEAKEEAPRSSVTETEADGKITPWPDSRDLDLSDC
Test: [3H]-CP55,940 radioligand competition binding, hCB2 membranes
assay_metric: Ki (nM)
# output: bare number, implied unit nM

Inquiry: So what does the record say about Ki for CCCCCCC(C)(C)c1cc(OCCBr)c2c(c1)OC(C)(C)c1cnn(CC)c1-2 ?
Reply text: 78.7

###

Biological target: human serum albumin (HSA) (Homo sapiens, UniProt P02768)
Sequence (P02768 25-609): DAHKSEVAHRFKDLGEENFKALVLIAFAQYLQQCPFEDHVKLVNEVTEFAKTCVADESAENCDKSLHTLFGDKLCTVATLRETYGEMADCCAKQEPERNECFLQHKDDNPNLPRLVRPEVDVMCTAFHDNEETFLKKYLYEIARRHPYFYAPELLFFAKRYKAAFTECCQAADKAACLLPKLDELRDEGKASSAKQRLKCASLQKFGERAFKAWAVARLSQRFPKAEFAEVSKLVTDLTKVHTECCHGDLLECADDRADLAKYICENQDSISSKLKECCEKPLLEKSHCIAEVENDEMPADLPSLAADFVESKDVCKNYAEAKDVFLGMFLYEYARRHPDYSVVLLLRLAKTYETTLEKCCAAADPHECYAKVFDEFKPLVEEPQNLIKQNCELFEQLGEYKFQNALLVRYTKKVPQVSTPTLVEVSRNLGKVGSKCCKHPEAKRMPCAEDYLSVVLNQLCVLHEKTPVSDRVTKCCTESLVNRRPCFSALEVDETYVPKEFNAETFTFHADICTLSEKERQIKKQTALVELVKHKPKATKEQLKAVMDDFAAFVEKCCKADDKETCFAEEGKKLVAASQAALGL
Assay: SPR
assay_metric: HSA binding level

1) CCCCCCC(C)(C)c1cc(OCCCO)c2c(c1)OC(C)(C)c1cn[nH]c1-2 [Compound 28] : very high
2) CCCCCCC(C)(C)c1cc(OCCCBr)c2c(c1)OC(C)(C)c1cn(C)nc1-2 [Compound 37] : very high
3) CCCCCCC(C)(C)c1cc(OCCBr)c2c(c1)OC(C)(C)c1cnn(CC)c1-2 [Compound 39] : medium
4) CCCCCCC(C)(C)c1cc(OC)c2c(c1)OC(C)(C)c1cn(CC)nc1-2 [Compound 18] : very high
5) CCCCCCC(C)(C)c1cc2c(c3c1CCCO3)-c1c(cnn1CC)C(C)(C)O2 [Compound 40] : medium

Inquiry: So what does the record say about HSA binding level for CCCCCCC(C)(C)c1cc(O)c2c(c1)OC(C)(C)c1cnoc1-2 [Compound 42] ?
Reply text: very high

Inquiry: Item: CCCCCCC(C)(C)c1cc(OCCO)c2c(c1)OC(C)(C)c1cn(CC)nc1-2 [Compound 36]
Reply text: very high

###

Target: human serum albumin (HSA) (Homo sapiens, UniProt P02768)
Assay: SPR
assay_metric: HSA binding level

1. CCCCCCC(C)(C)c1ccc([C@@H]2C[C@H](O)CC[C@H]2CCCO)c(O)c1 [CP55,940, reference compound] : high
2. CCCCC/C=C\C/C=C\C/C=C\C/C=C\CCCC(=O)OC(CO)CO [Compound 2-AG, 2-arachidonoylglycerol, reference compound] : high
3. C=C(C)[C@@H]1CCC(C)=C[C@H]1c1c(O)cc(CCCCC)cc1O [CBD, cannabidiol, reference compound] : high

###

Biological target: hCB2R (Homo sapiens, UniProt P34972)
Assay: cAMP determination assay, forskolin-stimulated HEK293-CB2R cells
Details: 200 nM and 1 μM, HEK293-CB2R cells
assay_metric: effect on forskolin-stimulated cAMP accumulation, preliminary screening

The cases that follow already have their effect on forskolin-stimulated cAMP accumulation, preliminary screening on record.
1. CCCCCCC(C)(C)c1cc(OCCCO)c2c(c1)OC(C)(C)c1cn(CC)nc1-2 : no effect
2. CCCCCCC(C)(C)c1cc(OCCBr)c2c(c1)OC(C)(C)c1cnn(CC)c1-2 : low to high inhibition
3. CCCCCCC(C)(C)c1cc(OCCO)c2c(c1)OC(C)(C)c1cn(C)nc1-2 : no effect
4. CCCCCCC(C)(C)c1cc(OC)c2c(c1)OC(C)(C)c1cnn(CC)c1-2 : low to high inhibition

Inquiry: So what does the record say about effect on forskolin-stimulated cAMP accumulation, preliminary screening for CCCCCCC(C)(C)c1cc(OC)c2c(c1)OC(C)(C)c1cn(CC)nc1-2 ?
Reply text: low to high inhibition

Inquiry: Item: CCCCCCC(C)(C)c1cc(OCCO)c2c(c1)OC(C)(C)c1cn[nH]c1-2
Reply text: low to high inhibition

Inquiry: Item: CCCCCCC(C)(C)c1cc(OC)c2c(c1)OC(C)(C)c1cn(C)nc1-2
Reply text: no effect

Inquiry: Item: CCCCCCC(C)(C)c1cc(OCCCBr)c2c(c1)OC(C)(C)c1cn(C)nc1-2
Reply text: low to high inhibition

Inquiry: Item: CCCCCCC(C)(C)c1cc(OCCCO)c2c(c1)OC(C)(C)c1cn[nH]c1-2
Reply text: low to high inhibition

Inquiry: Item: CCCCCCC(C)(C)c1cc(OCc2ccccc2)c2c(c1)OC(C)(C)c1cn[nH]c1-2
Reply text: low to high inhibition

###

Molecular target: UniProt:P34972
assay_metric: pIC50
Reminder that pIC50 means the negative base-10 logarithm of the concentration expressed in mol/L.

Inquiry: Observed pIC50 on UniProt:P34972 for CCCCCCC(C)(C)c1cc(OCCO)c2c(c1)OC(C)(C)c1cn[nH]c1-2 , please.
Reply text: 7.02

Inquiry: Item: CCCCCCC(C)(C)c1cc(OC)c2c(c1)OC(C)(C)c1cnoc1-2
Reply text: 7.41

Inquiry: Item: CCCCCCC(C)(C)c1cc(OCCCO)c2c(c1)OC(C)(C)c1cnoc1-2
Reply text: 6.27

Inquiry: Item: CCCCCCC(C)(C)c1cc(O)c2c(c1)OC(C)(C)c1cnoc1-2
Reply text: 7.30

###

System: α1-acid glycoprotein (AGP)
Test: SPR
assay_metric: AGP binding level

1. CCCCCCC(C)(C)c1cc(OCCBr)c2c(c1)OC(C)(C)c1cnn(CC)c1-2 : medium
2. CCCCCCC(C)(C)c1cc2c(c3c1CCCO3)-c1c(cnn1CC)C(C)(C)O2 : medium

Entry source: paper PMC5321205
